# maps each entry to its pKd
- measured-on: T1, human FcRH5 protein fragment (soluble) (human, UniProt Q96RD9 16-851)
- T1 construct: whole entry named; also called soluble human FcRH5; Human FcRH5 (BIACORE analyte)
- T1 sequence: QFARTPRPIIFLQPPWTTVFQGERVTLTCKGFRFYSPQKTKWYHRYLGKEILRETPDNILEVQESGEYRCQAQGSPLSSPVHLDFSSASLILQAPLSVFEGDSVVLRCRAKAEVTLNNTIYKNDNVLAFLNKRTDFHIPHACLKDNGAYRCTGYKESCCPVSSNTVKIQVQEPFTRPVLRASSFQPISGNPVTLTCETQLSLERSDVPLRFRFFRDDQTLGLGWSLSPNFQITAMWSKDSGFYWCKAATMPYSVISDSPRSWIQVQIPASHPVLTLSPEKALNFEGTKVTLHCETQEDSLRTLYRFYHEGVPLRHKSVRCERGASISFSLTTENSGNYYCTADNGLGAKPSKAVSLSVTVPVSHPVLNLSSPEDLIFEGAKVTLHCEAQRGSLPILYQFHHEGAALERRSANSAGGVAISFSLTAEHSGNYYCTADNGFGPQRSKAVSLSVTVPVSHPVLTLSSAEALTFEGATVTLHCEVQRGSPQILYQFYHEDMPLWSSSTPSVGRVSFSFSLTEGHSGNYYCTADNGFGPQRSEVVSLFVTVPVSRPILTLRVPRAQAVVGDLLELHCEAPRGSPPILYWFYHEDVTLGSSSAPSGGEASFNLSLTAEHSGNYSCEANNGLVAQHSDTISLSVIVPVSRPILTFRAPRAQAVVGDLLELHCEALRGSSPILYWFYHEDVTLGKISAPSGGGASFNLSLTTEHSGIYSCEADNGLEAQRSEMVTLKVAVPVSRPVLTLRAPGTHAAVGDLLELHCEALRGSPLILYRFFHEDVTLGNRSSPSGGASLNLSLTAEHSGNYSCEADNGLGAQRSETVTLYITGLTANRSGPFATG
- assay-notes: SPR, hIgG capture, screening
# pKd is unitless: minus log10 of the molar concentration; print number only

Recorded pKd, per entry:
- binder: "hu1G7.v1 heavy chain W52F with light chain of hu1G7.v1.7 (antibody, V domains shown, human IgG) VH: EVQLVESGPGLVKPSETLSLTCTVSGFSLTRFGVHWVRQPPGKGLEWLGVIFRGGSTDYNAAFMSRLTISKDNSKNQVSLKLSSVTAADTAVYYCSNHYYGSSDYALDNWGQGTLVTVSS VL: DIQMTQSPSSLSASVGDRVTITCKASQDVRNLVVWFQQKPGKAPKLLIYSGYYRYTGVPSRFSGSGSGTDFTLTISSLQPEDFATYYCQQHYQPPYTFGQGTKVEIK"
  pKd: 7.11
- binder: "hu1G7.v1 heavy chain M64I with light chain of hu1G7.v1.4 (antibody, V domains shown, human IgG) VH: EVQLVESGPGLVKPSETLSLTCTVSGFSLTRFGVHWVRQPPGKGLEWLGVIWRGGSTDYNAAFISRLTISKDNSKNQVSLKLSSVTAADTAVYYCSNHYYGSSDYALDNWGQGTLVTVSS VL: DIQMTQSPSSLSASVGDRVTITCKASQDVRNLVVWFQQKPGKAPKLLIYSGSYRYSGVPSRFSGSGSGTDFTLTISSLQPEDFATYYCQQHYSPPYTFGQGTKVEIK"
  pKd: 8.60

With those in mind, consider the next binder.
Query block: Requested read-out: pKd. Entry: hu1G7.v1 heavy chain M64I with light chain of hu1G7.v1.3 (antibody, V domains shown, human IgG) VH: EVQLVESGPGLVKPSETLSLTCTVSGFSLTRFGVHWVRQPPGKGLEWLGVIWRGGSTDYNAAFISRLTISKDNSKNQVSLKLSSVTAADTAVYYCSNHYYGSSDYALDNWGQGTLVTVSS VL: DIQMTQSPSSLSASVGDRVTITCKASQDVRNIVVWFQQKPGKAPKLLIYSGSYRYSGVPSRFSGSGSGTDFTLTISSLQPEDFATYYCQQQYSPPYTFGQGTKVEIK
Result block: 8.68
